These measurements were taken from patent US6518269B1.

- System: B16 Murine Melanoma
- test-protocol: MTT growth inhibition assay, B16 Murine Melanoma
- Assay type: cell-based
- particulars: Mus musculus, B16 Murine Melanoma cells
- Experimental: Each of the following compounds was tested for growth inhibition in a MTT assay against B16 Murine Melanoma and HT29 Colon Cancer, reported as IC50(μM).
measurement-name: IC50 (µM)
Form entry: value (µM) — number only.

Param item = "O=c1cnnc(N/N=C/c2ccccc2O)[nH]1" ; retrieve measured IC50.
0.264

Param item = "Cc1nnc(N/N=C/c2ccccc2O)[nH]c1=O" ; retrieve measured IC50.
1.1
